So I've got a bunch of compounds here, and I need their Solubility values.
- METHOD: Solubility in PBS
- Format: physicochemical
Report the value in µM with no unit label.

-- ask GET /values?readout=Solubility&item= CC(=O)N1CCC[C@]12CC=CCCCC1(CCCC=CCCCOC(=O)N3CC[C@@](C(=O)N[C@@H](Cc4ccccc4)C(=O)N[C@@H](Cc4csc5ccccc45)C(=O)N[C@@H](CCCCN)C(N)=O)(C3)NC(=O)[C@H](CC(C)C)NC(=O)[C@H](Cc3ccccc3)NC(=O)[C@H](C)NC(=O)[C@H](CCCCNC(C)C)NC(=O)[C@H]([C@@H](C)O)NC(=O)[C@H](CC(N)=O)NC1=O)NC(=O)[C@H](C)NC(=O)[C@H](CC(=O)O)NC2=O (stereo partly shown) [I-1377]
-- reply 10

-- ask GET /values?readout=Solubility&item= CC[C@H](C)[C@H](NC(=O)[C@H](CCC(N)=O)NC(=O)[C@H](Cc1csc2ccccc12)NC(=O)[C@H](Cc1ccccc1)NC(=O)[C@]1(C)CCCCCCC=CCCCC2(CCCC=CC[C@]3(CCCN3C(C)=O)C(=O)N[C@@H](CC(=O)O)C(=O)N[C@@H](CC(C)C)C(=O)N2)C(=O)N[C@@H](CC(=O)O)C(=O)N[C@@H](CCC(=O)O)C(=O)N[C@@H](C)C(=O)N[C@@H](C)C(=O)N[C@@H](Cc2ccccc2)C(=O)N[C@@H](CC(N)=O)C(=O)N1)C(N)=O (stereo partly shown) [I-733]
-- reply 43

-- ask GET /values?readout=Solubility&item= CC(=O)N1CCC[C@]12CC=CCCCC1(CCCC=CCCCOC(=O)N3CC[C@@](C(=O)N[C@@H](Cc4ccccc4Cl)C(=O)N[C@@H](Cc4csc5ccccc45)C(=O)N[C@@H](CCC(N)=O)C(N)=O)(C3)NC(=O)[C@H](CC(C)C)NC(=O)[C@H](Cc3ccccc3)NC(=O)[C@H](C)NC(=O)[C@H](C)NC(=O)[C@H]([C@@H](C)O)NC(=O)[C@H](CC(=O)O)NC1=O)NC(=O)[C@H](CC1CCCCC1)NC(=O)[C@H](CC(=O)O)NC2=O (stereo partly shown) [I-1176]
-- reply 10

-- ask GET /values?readout=Solubility&item= CC(=O)N1CCC[C@]12CC=CCCCC1(CCCC=CCCCCCC[C@@](C)(C(=O)N[C@@H](Cc3ccsc3)C(=O)N[C@@H](Cc3csc4ccccc34)C(N)=O)NC(=O)[C@H](CC(N)=O)NC(=O)[C@H](Cc3ccccc3)NC(=O)[C@H](C)NC(=O)[C@H](C)NC(=O)[C@H](CCC(=O)O)NC(=O)[C@H](CC(=O)O)NC1=O)NC(=O)[C@H](CC(C)(C)C)NC(=O)[C@H](CC(=O)O)NC2=O (stereo partly shown) [I-719]
-- reply 28

-- ask GET /values?readout=Solubility&item= CC(=O)N1CCC[C@]12CC=CCCCC1(CCCC=CCCCCCC[C@@](C)(C(=O)N[C@@H](Cc3ccsc3)C(=O)N[C@@H](Cc3csc4ccccc34)C(N)=O)NC(=O)[C@H](CC(N)=O)NC(=O)[C@H](Cc3ccccc3)NC(=O)[C@H](C)NC(=O)[C@H](C)NC(=O)[C@H](CCC(=O)O)NC(=O)[C@H](CC(=O)O)NC1=O)NC(=O)[C@H](CC(C)C)NC(=O)[C@H](CC(=O)O)NC2=O (stereo partly shown) [I-716]
-- reply 50

-- ask GET /values?readout=Solubility&item= CC[C@H](C)[C@@H]1NC(=O)[C@H](CC(=O)O)NC(=O)[C@]2(CC=CCCCC3(CCCC=CCCCCCC[C@@](C)(C(=O)N[C@@H](Cc4ccccc4)C(=O)N[C@@H](Cc4csc5ccccc45)C(N)=O)NC(=O)[C@H](CC(N)=O)NC(=O)[C@H](Cc4ccccc4)NC(=O)[C@H](C)NC(=O)[C@H](C)NC(=O)[C@H](CCC(=O)O)NC(=O)[C@H](CC(=O)O)NC3=O)NC1=O)CCCN2C(C)=O (stereo partly shown) [I-715]
-- reply 25

-- ask GET /values?readout=Solubility&item= CC(=O)N1CCC[C@]12CC=CCCCC1(CCCC=CCCCCCC[C@@](C)(C(=O)N[C@@H](Cc3ccccn3)C(=O)N[C@@H](Cc3csc4ccccc34)C(=O)N[C@@H](CCC(N)=O)C(N)=O)NC(=O)[C@H](C(C)C)NC(=O)[C@H](Cc3ccccc3)NC(=O)[C@H](C)NC(=O)[C@H](C)NC(=O)[C@H](CCC(=O)O)NC(=O)[C@H](CC(=O)O)NC1=O)NC(=O)[C@H](C)NC(=O)[C@H](CC(=O)O)NC2=O (stereo partly shown) [I-384]
-- reply 45

-- ask GET /values?readout=Solubility&item= CC(=O)N1CCC[C@]12CC=CCCCC1(CCCC=CCCCCCC[C@@](C)(C(=O)N[C@@H](Cc3ccccc3)C(=O)N[C@@H](Cc3csc4ccccc34)C(=O)N[C@@H](CCC(N)=O)C(N)=O)NC(=O)[C@H](C)NC(=O)[C@H](Cc3ccccc3C)NC(=O)[C@H](C)NC(=O)[C@H](C)NC(=O)[C@H](CC(=O)O)NC(=O)[C@H](CC(=O)O)NC1=O)NC(=O)[C@H](C)NC(=O)[C@H](CC(=O)O)NC2=O (stereo partly shown) [I-365]
-- reply 48

-- ask GET /values?readout=Solubility&item= CC(=O)N1CCC[C@]12CC=CCCCC1(CCCC=CCCCCCC[C@@](C)(C(=O)N[C@@H](Cc3ccccc3)C(=O)N[C@@H](Cc3csc4ccccc34)C(=O)N[C@@H](Cc3c[nH]cn3)C(N)=O)NC(=O)[C@H](CC(N)=O)NC(=O)[C@H](Cc3ccccc3)NC(=O)[C@H](C)NC(=O)[C@H](C)NC(=O)[C@H](CCC(=O)O)NC(=O)[C@H](CC(=O)O)NC1=O)NC(=O)[C@H](C)NC(=O)[C@H](CC(=O)O)NC2=O (stereo partly shown) [I-421]
-- reply 36

-- ask GET /values?readout=Solubility&item= CC(=O)N1CCC[C@]12CC=CCCCC1(CCCC=CCCCCCC[C@@](C)(C(=O)N[C@@H](Cc3ccsc3)C(=O)N[C@@H](Cc3csc4ccccc34)C(=O)N[C@@H](CCC(N)=O)C(=O)N[C@@H](C)C(=O)N[C@@H](C)C(=O)N[C@@H](C)C(N)=O)NC(=O)[C@H](CC(N)=O)NC(=O)[C@H](Cc3ccccc3)NC(=O)[C@H](C)NC(=O)[C@H](C)NC(=O)[C@H](CC(=O)O)NC(=O)[C@H](CC(=O)O)NC1=O)NC(=O)[C@H](CC(C)(C)C)NC(=O)[C@H](CC(=O)O)NC2=O (stereo partly shown) [I-874]
-- reply 50
